src = patent US20200375987A1

Record set of IC50 for target or system IMP-1 (Serratia marcescens, UniProt P52699).
Numeric answer only, unit nM assumed.

These recorded examples may help you get a feel for the data.
{"compound": "NC[C@@H](O)CNS(=O)(=O)c1ccc(N2CCC(CO)n3ccnc32)c(-c2nn[nH]n2)c1S(N)(=O)=O (stereo partly shown)", "IC50 [nM]": 4.17}
{"compound": "NS(=O)(=O)c1c(S(=O)(=O)N[C@@H]2CCNC2)ccc(N2Cc3cccnc3C2)c1-c1nnn[nH]1", "IC50 [nM]": 0.17}
{"compound": "NS(=O)(=O)c1c(S(=O)(=O)N[C@@H]2CCNC2)ccc(N2CCc3[nH]nnc3C2)c1-c1nnn[nH]1", "IC50 [nM]": 5.97}

Proceeding to the next compound to report its IC50.
Quick check: IC50 of NCC(CN)NS(=O)(=O)c1ccc(N2CCCn3ccnc32)c(-c2nn[nH]n2)c1S(N)(=O)=O ?
4.55

----------
VIM-2 (Escherichia coli, UniProt Q5U7L7): recorded pIC50 for assorted compounds
Lab note — pIC50 values are minus log10 of concentrations in M.

{"mol smiles": "NC[C@H](O)CNS(=O)(=O)c1ccc(N2CCCn3ccnc32)c(-c2nnn[nH]2)c1S(N)(=O)=O", "pIC50": 8.70}
{"mol smiles": "NS(=O)(=O)c1c(S(=O)(=O)N[C@@H]2CCNC2)ccc(N2CCn3ccnc3C2)c1-c1nnn[nH]1", "pIC50": 9.31}
{"mol smiles": "NC[C@@H](O)CNS(=O)(=O)c1ccc(N2CCc3cccnc32)c(-c2nn[nH]n2)c1S(N)(=O)=O", "pIC50": 9.31}

Please find the next compound below.
Item under review: NS(=O)(=O)c1c(S(=O)(=O)N[C@@H]2CCNC2)ccc(N2CCn3ncnc3C2)c1-c1nn[nH]n1 . Reported pIC50?
9.00

----------
// endpoint IC50 / system VIM-2 (Escherichia coli, UniProt Q5U7L7)
The figure you give is taken to be in nM; do not add the unit.

# count of solved cases: 6
{"mol smiles": "NS(=O)(=O)c1c(S(=O)(=O)N[C@@H]2CCNC2)ccc(N2CCCn3cnnc32)c1-c1nn[nH]n1", "system tested": "VIM-2 (Escherichia coli, UniProt Q5U7L7)", "IC50, nM": 1.13}
{"mol smiles": "NC[C@@H](O)CS(=O)(=O)c1ccc(N2CCCn3ccnc32)c(-c2nn[nH]n2)c1S(N)(=O)=O", "system tested": "VIM-2 (Escherichia coli, UniProt Q5U7L7)", "IC50, nM": 4.44}
{"mol smiles": "NS(=O)(=O)c1c(S(=O)(=O)N[C@@H]2CCNC2)ccc(N2CCCc3ccncc32)c1-c1nnn[nH]1", "system tested": "VIM-2 (Escherichia coli, UniProt Q5U7L7)", "IC50, nM": 1.24}
{"mol smiles": "NS(=O)(=O)c1c(S(=O)(=O)N[C@@H]2CCNC2)ccc(N2CCn3nc(C(F)(F)F)nc3C2)c1-c1nn[nH]n1", "system tested": "VIM-2 (Escherichia coli, UniProt Q5U7L7)", "IC50, nM": 0.48}
{"mol smiles": "NS(=O)(=O)c1c(S(=O)(=O)N[C@@H]2CCNC2)ccc(N2CCc3cccnc32)c1-c1nnn[nH]1", "system tested": "VIM-2 (Escherichia coli, UniProt Q5U7L7)", "IC50, nM": 0.39}
{"mol smiles": "C[C@H](N)CNS(=O)(=O)c1ccc(N2CCCn3ccnc32)c(-c2nn[nH]n2)c1S(N)(=O)=O", "system tested": "VIM-2 (Escherichia coli, UniProt Q5U7L7)", "IC50, nM": 2.6}

Hello, I am looking for reported IC50 with VIM-2 (Escherichia coli, UniProt Q5U7L7) for NS(=O)(=O)c1c(S(=O)(=O)N[C@@H]2CCNC2)ccc(N2CCCc3ccc(CCO)nc32)c1-c1nnn[nH]1 . Could you help?
5.59
